Where do the numbers come from? From patent US12329739B2.

system: DU145; experiment: MTT proliferation assay, DU145; type: cell-based; details: Prostate, DU145, 120 h of exposure
quantity: IC50

Cc1cc([C@H]2c3ccc(O)c(C)c3OC[C@H]2c2ccc(O)cc2)ccc1O (relative stereo) [l-6]: ≥ 10000 nM

Kindly consider the entry below.
input: Could you share which IC50 value was measured for Cc1cc([C@H]2c3ccc(O)c(C)c3OC[C@H]2c2ccc(O)cc2)ccc1O (relative stereo) [d-6] ?
output: 150 to 500 nM

* * *

Give measured IC50 for each item. Keep answers brief.
system: HuH-7; experiment: MTT proliferation assay, HuH-7; format: cell-based, human; conditions: Liver, HuH-7, 120 h of exposure

Cc1cc([C@H]2c3ccc(O)c(C)c3OC[C@H]2c2ccc(O)cc2)ccc1O (relative stereo) [d-6]: 150 to 500 nM

Kindly consider the entry below.
input: Could you share which IC50 value was measured for Cc1cc([C@H]2c3ccc(O)c(C)c3OC[C@H]2c2ccc(O)cc2)ccc1O (relative stereo) [l-6] ?
output: ≥ 10000 nM

* * *

assay: Solubility in Captisol solution; assay type: physicochemical; details: 20% Captisol solution, aqueous with cosolvent or surfactant or cyclodextrin, 25° C., read-out: solubility limit
quantity: solubility (mg/mL)
One number for each entry, in mg/mL.

input: Could you share which solubility value was measured for `Oc1ccc([C@H]2c3ccc(O)cc3OC[C@H]2c2ccc(O)cc2)cc1` ?
output: 27.9

* * *

tested on: A2058; assay: MTT proliferation assay, A2058; assay type: cell-based; details: Homo sapiens, A2058, 120 h, Melanoma, A2058, 120 h of exposure
Give measured IC50 for each item. Keep answers brief.

Cc1cc(C2c3ccc(O)c(C)c3OCC2c2ccc(O)cc2)ccc1O (centres unmarked): 150 to 500 nM
COc1ccc(C2c3ccc(O)c(C)c3OCC2c2ccc(O)cc2)cc1C (centres unmarked): 1600 to 10000 nM
COc1ccc([C@@H]2c3ccc(O)c(C)c3OC[C@@H]2c2ccc(O)cc2)cc1C: ≥ 10000 nM
Cc1c(O)ccc2c1OC[C@H](c1ccc(O)cc1)[C@@H]2c1ccc(O)cc1: ≥ 10000 nM
Oc1ccc([C@H]2c3ccc(O)cc3OC[C@H]2c2ccc(O)cc2)cc1: ≤ 150 nM
COc1ccc([C@H]2c3ccc(O)c(C)c3OC[C@H]2c2ccc(O)cc2)cc1C: 510 to 1500 nM
Cc1c(O)ccc2c1OC[C@@H](c1ccc(O)cc1)[C@H]2c1ccc(O)cc1: ≤ 150 nM

input: Could you share which IC50 value was measured for Cc1c(O)ccc2c1OCC(c1ccc(O)cc1)C2c1ccc(O)cc1 (centres unmarked) ?
output: ≤ 150 nM

* * *

tested on: A2780; assay: MTT proliferation assay, A2780; format: cell-based; conditions: Homo sapiens, A2780, 120 h, Ovarian, A2780, 120 h of exposure
pIC50: −log10 of the molar value.
quantity: pIC50

Worked examples follow.
COc1ccc([C@H]2c3ccc(O)c(C)c3OC[C@H]2c2ccc(O)cc2)cc1C: 5.82 to 6.29
Cc1cc(C2c3ccc(O)c(C)c3OCC2c2ccc(O)cc2)ccc1O (centres unmarked): 6.30 to 6.82
COc1ccc(C2c3ccc(O)c(C)c3OCC2c2ccc(O)cc2)cc1C (centres unmarked): 5.00 to 5.80
Cc1c(O)ccc2c1OC[C@@H](c1ccc(O)cc1)[C@H]2c1ccc(O)cc1: ≥ 6.82
Oc1ccc([C@H]2c3ccc(O)cc3OC[C@H]2c2ccc(O)cc2)cc1: 6.30 to 6.82
Cc1c(O)ccc2c1OC[C@H](c1ccc(O)cc1)[C@@H]2c1ccc(O)cc1: ≤ 5.00
Cc1c(O)ccc2c1OCC(c1ccc(O)cc1)C2c1ccc(O)cc1 (centres unmarked): 6.30 to 6.82

Kindly consider the entry below.
input: Could you share which pIC50 value was measured for `COc1ccc([C@@H]2c3ccc(O)c(C)c3OC[C@@H]2c2ccc(O)cc2)cc1C` ?
output: ≤ 5.00
